Origin of measurements: PubChem BioAssay (EPA / NIEHS)

Read-out: glucuronosyltransferase (UGT1A1), UGT1A1 (gene 54658)
Assay: CLD_UGT1A1_24hr: CellzDirect (CLD) Gene Expression Assay for glucuronosyltransferase (UGT1A1) at 24 hours (AID 2283696)
Records with an inconclusive call do not appear. Activity calls are given as the source filed them. The calls were made as follows: active = hit-call score of the fitted dose curve at least 0.9, where 1 is the maximum; inconclusive = response in the unintended direction; inactive = score below 0.9.
Pick one: True (active), False (inactive)

How was CCCN(CCC)c1c([N+](=O)[O-])cc(C(F)(F)F)cc1[N+](=O)[O-] classified in this test?
False

How was CCN(CC)C(=O)SCc1ccc(Cl)cc1 classified in this test?
False

How was Cc1[nH]c(=O)n(C(C)(C)C)c(=O)c1Cl classified in this test?
False

How was CCOCN(C(=O)CCl)c1c(C)cccc1CC classified in this test?
False

How was COc1nn(CSP(=S)(OC)OC)c(=O)s1 classified in this test?
False

How was O=C(NC(=O)c1c(F)cccc1F)Nc1ccc(OC(F)(F)C(F)OC(F)(F)F)c(Cl)c1 (stereo unspecified) classified in this test?
False

How was O=S(=O)(O)C(F)(F)C(F)(F)C(F)(F)C(F)(F)C(F)(F)C(F)(F)C(F)(F)C(F)(F)F classified in this test?
False

How was Oc1ccc(Cl)cc1Cc1ccccc1 classified in this test?
False

How was CNC(=O)/C=C(\C)OP(=O)(OC)OC classified in this test?
False

How was COC(=O)c1ccccc1S(=O)(=O)NC(=O)Nc1nc(C)nc(OC)n1 classified in this test?
False

How was CC1(C)C(C=C(Cl)Cl)C1C(=O)OC(C#N)c1ccc(F)c(Oc2ccccc2)c1 (stereo unspecified) classified in this test?
False

How was CC(C)N(C(=O)COc1nnc(C(F)(F)F)s1)c1ccc(F)cc1 classified in this test?
False

How was O=C1c2ccccc2C(=O)N1SC(Cl)(Cl)Cl classified in this test?
False

How was O=[N+]([O-])/N=C1\NCCN1Cc1ccc(Cl)nc1 classified in this test?
False

How was CC(C)(C)C(O)C(Oc1ccc(Cl)cc1)n1cncn1 (stereo unspecified) classified in this test?
True

How was CCOC1Oc2ccc(OS(C)(=O)=O)cc2C1(C)C (stereo unspecified) classified in this test?
False

How was COP(=O)(OC)OC=C(Cl)Cl classified in this test?
False

How was CCC(C)Nc1c([N+](=O)[O-])cc(C(C)(C)C)cc1[N+](=O)[O-] (stereo unspecified) classified in this test?
False

How was CC(C)(C)C(O)/C(=C\c1ccc(Cl)cc1Cl)n1cncn1 (stereo unspecified) classified in this test?
False

How was O=[N+]([O-])c1c(Cl)c(Cl)c(Cl)c(Cl)c1Cl classified in this test?
False

How was O=S1OCC2C(CO1)C1(Cl)C(Cl)=C(Cl)C2(Cl)C1(Cl)Cl (stereo unspecified) classified in this test?
False

How was COC(=O)c1ccccc1CS(=O)(=O)NC(=O)Nc1nc(OC)cc(OC)n1 classified in this test?
False

How was CNC(=O)Oc1cccc(N=CN(C)C)c1 classified in this test?
False

How was COC(=O)c1ccccc1S(=O)(=O)NC(=O)N(C)c1nc(C)nc(OC)n1 classified in this test?
False

How was CCC(C)(C)C(=O)OC1=C(c2ccc(Cl)cc2Cl)C(=O)OC12CCCCC2 classified in this test?
False

How was CCC(C)(NC(=O)c1cc(Cl)c(C)c(Cl)c1)C(=O)CCl (stereo unspecified) classified in this test?
False

###

Read-out: Cyclin D1 (CCND1), CCND1 (gene 595)
Assay: LTEA_HepaRG_CCND1: Life Technologies and Expression Analysis (LTEA) Assay for Cyclin D1 (CCND1) using HepaRG (AID 2283451)
Details: mRNA level, 48 h; actives raise or lower the signal
The source made the active and inactive calls. How the source made its calls: active means hit-call score of the fitted dose curve at least 0.9, where 1 is the maximum; inactive means score below 0.9.
Pick one: active, inactive

How was CNC(=O)Oc1cccc(N=CN(C)C)c1 classified in this test?
inactive

How was O=C(NC(=O)c1c(F)cccc1F)Nc1ccc(OC(F)(F)C(F)OC(F)(F)F)c(Cl)c1 (stereo not drawn) classified in this test?
inactive

How was CCOCN(C(=O)CCl)c1c(C)cccc1CC classified in this test?
inactive

How was O=C(Nc1ccccc1)Nc1cnns1 classified in this test?
active

How was Cc1[nH]c(=O)n(C(C)(C)C)c(=O)c1Cl classified in this test?
inactive

How was COP(=O)(OC)OC=C(Cl)Cl classified in this test?
inactive

How was Clc1ccccc1-c1nnc(-c2ccccc2Cl)nn1 classified in this test?
inactive

How was CNC(=O)Oc1ccccc1OC(C)C classified in this test?
inactive

How was CCC(C)(C)C(=O)OC1=C(c2ccc(Cl)cc2Cl)C(=O)OC12CCCCC2 classified in this test?
inactive

How was CC(C)(C)C(O)C(Oc1ccc(Cl)cc1)n1cncn1 (stereo not drawn) classified in this test?
inactive

How was O=C(O)CCCOc1ccc(Cl)cc1Cl classified in this test?
inactive

How was CCN(CC)C(=O)SCc1ccc(Cl)cc1 classified in this test?
inactive

How was O=S1OCC2C(CO1)C1(Cl)C(Cl)=C(Cl)C2(Cl)C1(Cl)Cl (stereo not drawn) classified in this test?
inactive

###

Assay: ATG_FoxO_CIS: Attagene CIS-FACTORIAL HepG2 Assay for human Forkhead box O (FoxO) (AID 2282943)
Conditions: HepG2 Attagene cis-reporter, FoxO element, mRNA; actives raise or lower the signal
Active and inactive are the calls of the source. The calls were made as follows: active = hit-call score of the fitted dose curve at least 0.9, where 1 is the maximum; inactive = score below 0.9.
Pick one: Yes for active, No for inactive

How was CCOc1nc(NC)nc(NC(=O)NS(=O)(=O)c2ccccc2C(=O)OC)n1 classified in this test?
No

How was CC(C)(C)C(O)C(Oc1ccc(Cl)cc1)n1cncn1 (stereo not drawn) classified in this test?
No

How was CCC(C)Nc1c([N+](=O)[O-])cc(C(C)(C)C)cc1[N+](=O)[O-] (stereo not drawn) classified in this test?
No

How was CCOCN(C(=O)CCl)c1c(C)cccc1CC classified in this test?
No

How was CNC(=O)CSP(=S)(OC)OC classified in this test?
No

How was CCOC1Oc2ccc(OS(C)(=O)=O)cc2C1(C)C (stereo not drawn) classified in this test?
No

How was CNC(=O)Oc1cccc(N=CN(C)C)c1 classified in this test?
Yes

How was CNC(=O)/C=C(\C)OP(=O)(OC)OC classified in this test?
No

How was O=C(O)CCCOc1ccc(Cl)cc1Cl classified in this test?
No

How was CC(C)OC(=O)Nc1cccc(Cl)c1 classified in this test?
No

How was CC1(C)C(C=C(Cl)Cl)C1C(=O)OC(C#N)c1ccc(F)c(Oc2ccccc2)c1 (stereo not drawn) classified in this test?
No

How was Cc1cc(C)nc(NC(=O)NS(=O)(=O)c2ccccc2C(=O)OC2COC2)n1 classified in this test?
No

How was Clc1ccccc1-c1nnc(-c2ccccc2Cl)nn1 classified in this test?
No

How was O=[N+]([O-])c1c(Cl)c(Cl)c(Cl)c(Cl)c1Cl classified in this test?
No

How was [2H]C1([2H])[n+]2ccccc2-c2cccc[n+]2C1([2H])[2H] classified in this test?
No

How was CCC(C)(C)C(=O)OC1=C(c2ccc(Cl)cc2Cl)C(=O)OC12CCCCC2 classified in this test?
No

How was CNC(=O)Oc1ccccc1OC(C)C classified in this test?
No

How was CC1(c2ccc(Oc3ccccc3)cc2)OC(=O)N(Nc2ccccc2)C1=O (stereo not drawn) classified in this test?
No

How was O=C(O)C(F)(F)C(F)(F)C(F)(F)C(F)(F)C(F)(F)C(F)(F)C(F)(F)F classified in this test?
No

How was COC(=O)c1ccccc1CS(=O)(=O)NC(=O)Nc1nc(OC)cc(OC)n1 classified in this test?
No

How was CCCN(CCC)c1c([N+](=O)[O-])cc(C(F)(F)F)cc1[N+](=O)[O-] classified in this test?
No

How was N#Cc1c(Cl)c(Cl)c(Cl)c(C#N)c1Cl classified in this test?
No

How was Cc1[nH]c(=O)n(C(C)(C)C)c(=O)c1Cl classified in this test?
No

How was Oc1cc(Cl)ccc1Oc1ccc(Cl)cc1Cl classified in this test?
No

How was CCCN(CCOc1c(Cl)cc(Cl)cc1Cl)C(=O)n1ccnc1 classified in this test?
No

How was COc1nn(CSP(=S)(OC)OC)c(=O)s1 classified in this test?
No

How was COP(=S)(OC)Oc1ccc([N+](=O)[O-])cc1 classified in this test?
No

How was CCN(CC)C(=O)SCc1ccc(Cl)cc1 classified in this test?
No

###

Read-out: Cytochrome P450 2B6 (Homo sapiens) (UniProt P20813)
Assay: CLD_CYP2B6_48hr: CellzDirect (CLD) Gene Expression Assay for xenobiotic metabolism (CYP2B6) at 48 hours (AID 2283699);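 also: actives raise transcript level above DMSO so potency reflects induction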
Inconclusive results are not listed. Activity calls are given as the source filed them. Rule for the calls: active = hit-call score of the fitted dose curve at least 0.9, where 1 is the maximum; inconclusive = response in the unintended direction; inactive = score below 0.9.
Pick one: yes for active, no for inactive

How was N#Cc1c(Cl)c(Cl)c(Cl)c(C#N)c1Cl classified in this test?
yes

How was O=S(=O)(O)C(F)(F)C(F)(F)C(F)(F)C(F)(F)C(F)(F)C(F)(F)C(F)(F)C(F)(F)F classified in this test?
no

How was COC(=O)c1ccccc1S(=O)(=O)NC(=O)N(C)c1nc(C)nc(OC)n1 classified in this test?
no

How was Oc1ccc(Cl)cc1Cc1ccccc1 classified in this test?
no

How was CCOCN(C(=O)CCl)c1c(C)cccc1CC classified in this test?
yes

How was O=[N+]([O-])/N=C1\NCCN1Cc1ccc(Cl)nc1 classified in this test?
no
